pIC50 listing for selected compounds.
Target: rat MAO-A (Rattus norvegicus, UniProt P21396)
Sequence (P21396 1-526): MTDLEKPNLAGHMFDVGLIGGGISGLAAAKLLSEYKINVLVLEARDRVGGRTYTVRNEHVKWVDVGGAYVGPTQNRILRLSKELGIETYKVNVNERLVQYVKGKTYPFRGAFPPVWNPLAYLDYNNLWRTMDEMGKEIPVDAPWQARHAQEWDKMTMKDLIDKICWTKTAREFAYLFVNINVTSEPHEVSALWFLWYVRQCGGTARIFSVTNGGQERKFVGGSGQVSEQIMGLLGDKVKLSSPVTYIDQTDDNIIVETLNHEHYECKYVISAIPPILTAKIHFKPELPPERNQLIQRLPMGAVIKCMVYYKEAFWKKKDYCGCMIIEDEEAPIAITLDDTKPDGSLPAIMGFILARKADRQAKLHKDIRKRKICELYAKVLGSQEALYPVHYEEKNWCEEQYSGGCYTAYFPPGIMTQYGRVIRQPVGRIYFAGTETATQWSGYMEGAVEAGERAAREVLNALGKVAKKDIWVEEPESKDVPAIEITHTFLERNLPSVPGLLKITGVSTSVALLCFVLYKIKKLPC
Assay: Monoamine oxidase A (MAO-A) activity assay, spectrophotometric enzymatic kit
Format: biochemical
Settings: rat MAO-A as enzyme source (rat liver mitochondrial pellet); read-out: IC50, inhibition against MAO-A activity
Method: MAO was purified from the rat liver according to the Gómez method after minor modification. The liver tissue was rapidly removed into ice cold homogenized (1 : 10, w/v) in 50 mM KH2PO4 buffer, pH 7.2, containing 0.25 mM sucrose. […] The MAO-A activity was measured by spectrophotometrically (Mapada, UV-3100, China) using enzymatic kits according to the instructions (Nanjing Jiancheng Institute of Biotechnology). […]
Field pIC50 (float): negative decimal logarithm of the concentration in molar.

given_smiles=COc1ccc([C@@H]2CC(=O)c3c(O)cc(O[C@@H]4O[C@H](CO)[C@@H](O)[C@H](O)[C@H]4O[C@@H]4O[C@@H](C)[C@H](O)[C@@H](O)[C@H]4O)cc3O2)cc1O value=4.03

Now, please, on to the next compound.
Ask: // map COc1ccc([C@@H]2CC(=O)c3c(O)cc(O[C@@H]4O[C@H](CO[C@@H]5O[C@@H](C)[C@H](O)[C@@H](O)[C@H]5O)[C@@H](O)[C@H](O)[C@H]4O)cc3O2)cc1O to recorded pIC50 (system: rat MAO-A (Rattus norvegicus, UniProt P21396))
Result: 4.57

----------
Biological target: rat MAO-A (Rattus norvegicus, UniProt P21396)
Sequence (P21396 1-526): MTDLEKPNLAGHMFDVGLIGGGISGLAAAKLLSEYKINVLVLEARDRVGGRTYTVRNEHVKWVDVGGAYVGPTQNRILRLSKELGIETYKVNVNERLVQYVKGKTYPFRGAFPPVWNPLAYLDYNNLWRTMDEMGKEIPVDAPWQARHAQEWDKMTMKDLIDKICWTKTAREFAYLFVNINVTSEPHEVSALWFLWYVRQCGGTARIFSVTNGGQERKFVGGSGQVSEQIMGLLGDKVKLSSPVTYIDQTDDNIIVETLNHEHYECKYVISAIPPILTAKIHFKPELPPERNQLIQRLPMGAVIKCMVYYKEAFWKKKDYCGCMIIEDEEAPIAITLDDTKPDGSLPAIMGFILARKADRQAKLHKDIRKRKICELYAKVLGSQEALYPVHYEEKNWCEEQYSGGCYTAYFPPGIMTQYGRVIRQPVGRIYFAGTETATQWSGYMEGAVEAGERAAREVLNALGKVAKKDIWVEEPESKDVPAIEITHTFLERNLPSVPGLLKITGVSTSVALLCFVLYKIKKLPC
Assay: Monoamine oxidase A (MAO-A) activity assay, spectrophotometric enzymatic kit
Assay type: biochemical
Measured Parameter: pIC50
Field pIC50 (float): negative decimal logarithm of the concentration in molar.

compound="CNCC(O)c1ccc(O)cc1 (centres unmarked) [Synephrine]" system_name="rat MAO-A (Rattus norvegicus, UniProt P21396)" value=4.82

Ask: Item C[C@@H]1O[C@@H](O[C@H]2[C@H](Oc3cc(O)c4c(c3)O[C@H](c3ccc(O)cc3)CC4=O)O[C@H](CO)[C@@H](O)[C@@H]2O)[C@H](O)[C@H](O)[C@H]1O has what recorded pIC50?
Result: 5.24
